Reference source: patent US7087616B2

Assay: logP determination by HPLC (EEC Directive 79/831 Annex V.A8)
Type: physicochemical
Conditions: reversed-phase HPLC column (C 18); pH 2.3; HPLC reversed-phase column (C 18), 43° C.; read-out: log P(pH 2.3)
Label yes when chromatographic logP < 3; otherwise no.

* CCOC(=O)CSc1nccc(-n2cc(OC(C)C)cn2)n1 | no
* CCOC(=O)CSc1nccc(-n2ncc3c2CCCC3)n1 | no
* CCOC(=O)CSc1nccc(-n2cc(SC(F)(F)C(F)F)cn2)n1 | no
* CCOC(=O)CSc1nccc(-n2nc(C)c(Cl)c2C)n1 | no
* CCOC(=O)CSc1nccc(-n2cc([N+](=O)[O-])cn2)n1 | yes
* O=C(CSc1nccc(-n2cccn2)n1)OCCCl | yes
* COC(=O)CSc1nccc(-n2cc(Br)cn2)n1 | yes
* O=C(O)CSc1nccc(-n2cc(Cl)cn2)n1 | yes
* CCOC(=O)CN(C)c1nccc(-n2cc(OC(C)C)cn2)n1 | yes

====

Known pest or weed control at 500 ppm of a selection of compounds
System: cotton aphid (Aphis gossypii)
Test: Aphis gossypii Test
Assay type: in vivo
Settings: 144 h, 500 ppm, cotton leaves dipped, read-out: Kill rate in % after 6d
value_kind: pest or weed control at 500 ppm (%)

- CCOC(=O)CSc1nccc(-n2cc(OC)cn2)n1: 95
- CCOC(=O)CN(C)c1nccc(-n2cccn2)n1 [drawing 198]: 99
- CCOC(=O)CSc1nccc(-n2cc(C(F)(F)F)cn2)n1 [drawing 201]: 95
- CCOC(=O)CSc1nccc(-n2cc(SC(F)(F)C(F)F)cn2)n1 [drawing 206]: 90
- COc1cnn(-c2ccnc(SCC(=O)OCC(F)(F)F)n2)c1 [drawing 205]: 100

====

Test system: Meloidogyne incognita
Experiment: Meloidogyne Test
Format: in vivo
Conditions: 20 ppm; Table A 2; emulsifier 2 parts by weight; nematicidal action by gall formation on lettuce
value_kind: Kill rate in % after 14d (%)

• C#Cc1cnn(-c2ccnc(SCC(=O)OCC)n2)c1 [drawing 171] = 90
• CCOC(=O)CSc1nccc(-n2cc(Cl)cn2)n1 [drawing 169] = 100
• O=C(O)CSc1nccc(-n2cc(-c3ccc(Cl)cc3)cn2)n1 = 80
• CCOC(=O)CSc1nccc(-n2ccc(C(C)=O)n2)n1 = 80
• C=Cc1cnn(-c2ccnc(SCC(=O)OCC)n2)c1 [drawing 173] = 80
• O=C(O)CSc1nccc(-n2cc(Cl)cn2)n1 [drawing 172] = 85

====

chromatographic logP: recorded values
Experiment: logP determination by HPLC (EEC Directive 79/831 Annex V.A8)
Type: physicochemical
Conditions: reversed-phase HPLC column (C 18); pH 2.3; HPLC reversed-phase column (C 18), 43° C.; read-out: log P(pH 2.3)
value_kind: chromatographic logP

- O=C(O)CSc1nccc(-n2cc(Br)cn2)n1: 1.91
- CCOC(=O)CSc1nccc(-n2ncc3ccccc32)n1: 3.34
- COc1cnn(-c2ccnc(SCC(=O)O)n2)c1: 1.45
- CCOC(=O)CSc1nccc(-n2cccn2)n1: 2.19
- CCOC(=O)CSc1nccc(-n2cc(N)cn2)n1: 0.94
- CCOC(=O)CSc1nccc(-n2cc(C#N)cn2)n1: 2.32
- CN(CC(=O)O)c1nccc(-n2cc(Cl)cn2)n1: 1.82
- CCOC(=O)CSc1nccc(-n2cc(C(F)(F)F)cn2)n1: 3.27
- CCOC(=O)CN(CC)c1nccc(-n2cccn2)n1: 2.53
- CCOC(=O)CSc1nccc(-n2ccc(C)n2)n1: 2.51
- CCOC(=O)CSc1nccc(-n2nc(C#N)c3ccccc32)n1: 3.64
- CCOC(=O)CSc1nccc(-n2ncc(SC(F)(F)F)c2C)n1: 4.08
- CCOC(=O)CSc1nccc(-n2nc(C(F)(F)F)cc2C(F)(F)F)n1: 4.03
- CCOC(=O)CN(CC(C)C)c1nccc(-n2cccn2)n1: 3.57
- CCOC(=O)CSc1nccc(-n2cc(CC)cn2)n1: 2.99
- COc1cnn(-c2ccnc(N(C)CC(=O)O)n2)c1: 1.14

====

Test: logP determination by HPLC (EEC Directive 79/831 Annex V.A8)
Assay type: physicochemical
Conditions: reversed-phase HPLC column (C 18); pH 2.3; HPLC reversed-phase column (C 18), 43° C.; read-out: log P(pH 2.3)
Decide using chromatographic logP: a value greater than or equal to 3 is met, a smaller one is not met.

* CCOC(=O)CSc1nccc(-n2ccc(-c3ccc(Cl)cc3)n2)n1 [Example 8] | met
* CCOC(=O)CSc1nccc(-n2cc(C(=O)OCC)cn2)n1 [Example 47] | not met
* C=Cc1cnn(-c2ccnc(SCC(=O)OCC)n2)c1 [Example 96] | not met
* CCOC(=O)CSc1nccc(-n2cc(Br)c(N)n2)n1 [Example 41] | not met
* CCOC(=O)CSc1nccc(-n2cc(C(C)=O)cn2)n1 [Example 95] | not met
* CCOC(=O)CSc1nccc(-n2cc3ccccc3n2)n1 [Example 23] | met
* CC(OC(=O)CSc1nccc(-n2cc(Br)cn2)n1)C(F)(F)C(F)(F)F (stereo not shown) [Example 92] | met
* CN(CC(=O)O)c1nccc(-n2cc(Br)cn2)n1 [Example 62] | not met
* C#Cc1cnn(-c2ccnc(SCC(=O)OCC)n2)c1 [Example 74] | not met
* COc1cnn(-c2ccnc(SCC(=O)OCC(F)(F)F)n2)c1 [Example 101] | not met

====

Assay: logP determination by HPLC (EEC Directive 79/831 Annex V.A8)
Assay type: physicochemical
Settings: reversed-phase HPLC column (C 18); pH 2.3; HPLC reversed-phase column (C 18), 43° C.
value_kind: chromatographic logP

- CCOC(=O)CSc1nccc(-n2cc(C)cn2)n1 [Example 1]: 2.28
- CCOC(=O)CSc1nccc(Br)n1: 2.27
- CCOC(=O)CN(C)c1nccc(-n2cccn2)n1 [Example 3]: 2.1
- CCOC(=O)CSc1nccc(-n2nccc2[N+](=O)[O-])n1 [Example 2]: 2.55
